Measured values drawn from patent US10150760B2 for this set.

- Tested Target: human APJ receptor (Homo sapiens (Human), UniProt P35414)
- Sequence (P35414 whole entry): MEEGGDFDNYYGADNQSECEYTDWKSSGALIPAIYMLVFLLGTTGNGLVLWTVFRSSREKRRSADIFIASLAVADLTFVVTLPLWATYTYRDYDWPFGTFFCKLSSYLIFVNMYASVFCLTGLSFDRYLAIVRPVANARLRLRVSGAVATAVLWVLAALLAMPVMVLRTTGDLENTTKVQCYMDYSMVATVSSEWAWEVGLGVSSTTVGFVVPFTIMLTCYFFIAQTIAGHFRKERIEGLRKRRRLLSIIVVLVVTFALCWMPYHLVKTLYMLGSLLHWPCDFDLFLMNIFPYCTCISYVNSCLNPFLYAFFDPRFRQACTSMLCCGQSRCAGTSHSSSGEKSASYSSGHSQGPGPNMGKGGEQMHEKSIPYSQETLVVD
- Test Summary: [35S]GTPγS binding assay on membranes from CHO cells stably expressing human APJ receptor
- Condition Label: read-out: Activity hAPJ SPA EC50 IP
Property Measured: EC50 (nM)

{"columns": ["Molecule", "Numeric Value"],
 "data": [
  ["COc1cccc(OC)c1-n1c(NS(=O)(=O)[C@@H](C)[C@H](C)c2ncc(C)cn2)nnc1[C@@H]1CCCN(C)C1 (single isomer, unassigned) [Example 269.0]", 420],
  ["COc1cccc(OC)c1-n1c(NS(=O)(=O)[C@@H](C)[C@H](C)c2ccc(Cl)cn2)nnc1C1CCOC1 (single isomer, unassigned) [Example 410.0]", 19],
  ["COc1cccc(OC)c1-n1c(NS(=O)(=O)[C@@H](C)[C@H](C)c2ncc(C)cn2)nnc1[C@H]1OCC[C@H]1C (single isomer, unassigned) [Example 71.0]", 450],
  ["COc1ncnc(OC)c1-n1c(NS(=O)(=O)[C@@H](C)[C@@H](OC(C)C)c2ncc(C)cn2)nnc1[C@H]1CCCO1 (single isomer, unassigned) [Example 95.0]", 15],
  ["COc1cccc(OC)c1-n1c(NS(=O)(=O)CCc2ccc(Cl)cc2)nnc1[C@@H]1CCCO1 (racemic) [Example 143.0]", 120],
  ["COc1cccc(OC)c1-n1c(NS(=O)(=O)[C@@H](C)[C@H](C)c2ncc(C)cn2)nnc1[C@@H]1CCCN(C)C1 (single isomer, unassigned) [Example 270.0]", 410]
]}

----------
- Tested Target: human APJ receptor (Homo sapiens (Human))
- Test Summary: [35S]GTPγS binding assay on membranes from CHO cells stably expressing human APJ receptor
- Format: biochemical
- Condition Label: read-out: Activity hAPJ SPA EC50 IP
- Description: The human APJ receptor was cloned by polymerase chain reaction and the gene encoding the receptor was subcloned in pFLAG-CMV™-3 expression vector (Sigma, Saint Louis, Mo. USA) in-house at Amgen. […] The optimum experimental conditions for the concentrations of GDP, MgCl2, and NaCl in the assay buffer were initially determined. […] Nonspecific binding was determined in the presence of 100 μM GTPγS and was always less than 0.2% of total binding. […]
Measured log10 EC50 accompanies every entry in the list below.
Property Measured: log10 EC50 (log10 of the value in nM)

{"columns": ["Molecule", "Numeric Value"],
 "data": [
  ["COc1cccc(OC)c1-n1c(NS(=O)(=O)[C@@H](C)[C@H](C)c2ncc(Cl)cn2)nnc1[C@H]1CCO1 (single isomer, unassigned) [Example 445.0]", 1.48],
  ["COc1cccc(OC)c1-n1c(NS(=O)(=O)[C@@H](C)[C@@H](OC(C)C)c2ncc(Cl)cn2)nnc1[C@H]1CCC(=O)N1 (single isomer, unassigned) [Example 400.0]", 2.52],
  ["COc1cccc(OC)c1-n1c(NS(=O)(=O)[C@@H](C)[C@H](OC)c2ncc(Cl)cn2)nnc1[C@H]1CCC(C)(C)O1 (single isomer, unassigned) [Example 109.0]", -0.80],
  ["COc1ncnc(OC)c1-n1c(NS(=O)(=O)[C@@H](C)[C@@H](OC(C)C)c2ncc(Cl)cn2)nnc1[C@H]1CCOC1 (single isomer, unassigned) [Example 291.0]", 0.72],
  ["COc1cccc(OC)c1-n1c(NS(=O)(=O)[C@@H](C)[C@H](C)c2cnc(C)cn2)nnc1[C@H]1CCCOC1 (single isomer, unassigned) [Example 134.0]", 2.60]
]}
